Hey, just so you know, these numbers are from paper PMC5844530.

test-protocol: Pharmacokinetics in whole blood, Sprague-Dawley rats
condition-notes: male, Sprague-Dawley, rat, in vivo, 700 mg/kg, Fosmetpantotenate Mean Conc., male Sprague-Dawley rats, fosmetpantotenate 700 mg/kg oral, blood, 0.033 hr, mean, BQL <1.26 nM
quantity-kind: concentration at 0.033 h (nM)
Value expressed in nM; do not type the unit.

// concentration at 0.033 h value for COC(=O)CCNC(=O)[C@H](O)C(C)(C)COP(=O)(N[C@@H](C)C(=O)OC)Oc1ccccc1 (mixture of isomers) [Fosmetpantotenate] : 114

* * *

test-protocol: Microdialysis (striatal dialysate and blood) in cynomolgus monkeys
Format: in vivo, cynomolgus monkey
condition-notes: cynomolgus, cynomolgus monkey, in vivo; blood; fosmetpantotenate 100 mg/kg PO; analyte = label; read-out: AUC
quantity-kind: AUC (µM·h)
Value expressed in µM·h; do not type the unit.

// AUC value for COC(=O)CCNC(=O)[C@H](O)C(C)(C)COP(=O)(N[C@@H](C)C(=O)OC)Oc1ccccc1 (mixture of isomers) [Fosmetpantotenate] : 1.87

* * *

test-protocol: Microdialysis (striatal dialysate and blood) in cynomolgus monkeys
Type: in vivo, cynomolgus monkey
condition-notes: cynomolgus monkey, in vivo; individual Cyno; Fosmetpantotentate 300 mg/kg PO; corrected for dilution; post-dose, time 3 hr; LLOQ D1=0.2 nM, D2=0.3 nM; read-out: Fosmetpantotenate Dialysate Concentration
quantity-kind: concentration at 3 h (nM)
Value expressed in nM; do not type the unit.

// concentration at 3 h value for COC(=O)CCNC(=O)[C@H](O)C(C)(C)COP(=O)(N[C@@H](C)C(=O)OC)Oc1ccccc1 (mixture of isomers) [Fosmetpantotenate] : 23.7

* * *

test-protocol: Pharmacokinetics in whole blood, Sprague-Dawley rats
condition-notes: male, Sprague-Dawley, rat, in vivo, 300 mg/kg, Fosmetpantotenate Mean Conc., male Sprague-Dawley rats, fosmetpantotenate 300 mg/kg oral, blood, 0.5 hr, mean, BQL <1.26 nM
quantity-kind: concentration at 0.5 h (nM)
Value expressed in nM; do not type the unit.

// concentration at 0.5 h value for COC(=O)CCNC(=O)[C@H](O)C(C)(C)COP(=O)(N[C@@H](C)C(=O)OC)Oc1ccccc1 (mixture of isomers) [Fosmetpantotenate] : 290

* * *

test-protocol: Pharmacokinetics in whole blood, CD-1 mice
condition-notes: male, CD-1, mouse, whole blood, po, 300 mg/kg, Whole Blood Conc. of compound 2, CD-1 mice, single 300 mg/kg RE-024-02 PO, 4 hr, LLOQ 3 ng/mL
quantity-kind: concentration at 4 h (ng/mL)
Value expressed in ng/mL; do not type the unit.

// concentration at 4 h value for COC(=O)CCNC(=O)[C@@H]1OP(=O)(O)OCC1(C)C : 21.9

* * *

test-protocol: Microdialysis (striatal dialysate and blood) in cynomolgus monkeys
Format: in vivo, cynomolgus monkey
condition-notes: cynomolgus monkey, in vivo, po, 300 mg/kg
quantity-kind: AUC (µM·h)
Value expressed in µM·h; do not type the unit.

// AUC value for CC(C)(CO)[C@@H](O)C(=O)NCCC(=O)O [PA, pantothenate] : 2.17

* * *

test-protocol: Pharmacokinetics in whole blood, CD-1 mice
condition-notes: male, CD-1, mouse, in vivo, 700 mg/kg, Fosmetpantotenate Mean Conc., male CD-1 mice, fosmetpantotenate 700 mg/kg oral, blood, 1 hr, mean, BQL <1.02 nM
quantity-kind: concentration at 1 h (nM)
Value expressed in nM; do not type the unit.

// concentration at 1 h value for COC(=O)CCNC(=O)[C@H](O)C(C)(C)COP(=O)(N[C@@H](C)C(=O)OC)Oc1ccccc1 (mixture of isomers) [Fosmetpantotenate] : 51.6
